Quick record: pIC50, Cdk6 (Homo sapiens).
pIC50: −log10 of the molar value. Where a name gives a salt, the structure may show the parent alone.
experimental-endpoint: pIC50

>>> df
                                   compound  measured_result
0  COCCN1CCN(Cc2ccc(-c3n[nH]c4c3C(=O)c3c(NC(=O)NN5CCOCC5)cccc3-4)cc2)CC1 [Compound B16, dihydrochloride]           > 7.30
1  CC(C)N1CCN(C(=O)COc2ccc(-c3n[nH]c4c3C(=O)c3c(NC(=O)NN5CCOCC5)cccc3-4)cc2)CC1 [Compound A37]           > 7.00

---

target: JNK2α2 (Homo sapiens); construct: purchased Upstate 14-329; test: JNK2α2 kinase assay; format: biochemical; settings: kinase panel, 10 μM ATP; read-out: JNK2α2 IC50
Sequence (P45984 whole entry): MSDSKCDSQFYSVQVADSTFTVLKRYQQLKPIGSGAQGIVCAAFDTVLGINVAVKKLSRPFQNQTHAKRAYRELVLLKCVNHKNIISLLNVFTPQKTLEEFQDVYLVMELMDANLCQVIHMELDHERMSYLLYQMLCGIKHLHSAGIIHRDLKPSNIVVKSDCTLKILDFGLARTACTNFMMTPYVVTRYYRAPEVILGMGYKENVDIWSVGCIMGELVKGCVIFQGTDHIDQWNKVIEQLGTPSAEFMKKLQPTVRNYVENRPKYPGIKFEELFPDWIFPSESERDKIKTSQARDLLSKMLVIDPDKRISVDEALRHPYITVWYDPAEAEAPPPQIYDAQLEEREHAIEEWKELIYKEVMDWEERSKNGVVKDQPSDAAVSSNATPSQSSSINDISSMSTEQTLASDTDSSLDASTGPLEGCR
Where a name gives a salt, the structure may show the parent alone.
experimental-endpoint: IC50

In [3]: df
Out[3]:
                                   compound  experimental_endpoint  measured_result
0  COCCN1CCN(Cc2ccc(-c3n[nH]c4c3C(=O)c3c(NC(=O)NN5CCOCC5)cccc3-4)cc2)CC1 [Compound B16, dihydrochloride]                   IC50         < 0.1 µM
1  CC(C)N1CCN(C(=O)COc2ccc(-c3n[nH]c4c3C(=O)c3c(NC(=O)NN5CCOCC5)cccc3-4)cc2)CC1                   IC50   0.01 to 0.1 µM

---

target: c-Src (Homo sapiens); construct: purchased Upstate 14-326; assay: c-Src kinase assay; format: biochemical; conditions: kinase panel, 10 μM ATP; read-out: c-Src IC50
Sequence (P12931 whole entry): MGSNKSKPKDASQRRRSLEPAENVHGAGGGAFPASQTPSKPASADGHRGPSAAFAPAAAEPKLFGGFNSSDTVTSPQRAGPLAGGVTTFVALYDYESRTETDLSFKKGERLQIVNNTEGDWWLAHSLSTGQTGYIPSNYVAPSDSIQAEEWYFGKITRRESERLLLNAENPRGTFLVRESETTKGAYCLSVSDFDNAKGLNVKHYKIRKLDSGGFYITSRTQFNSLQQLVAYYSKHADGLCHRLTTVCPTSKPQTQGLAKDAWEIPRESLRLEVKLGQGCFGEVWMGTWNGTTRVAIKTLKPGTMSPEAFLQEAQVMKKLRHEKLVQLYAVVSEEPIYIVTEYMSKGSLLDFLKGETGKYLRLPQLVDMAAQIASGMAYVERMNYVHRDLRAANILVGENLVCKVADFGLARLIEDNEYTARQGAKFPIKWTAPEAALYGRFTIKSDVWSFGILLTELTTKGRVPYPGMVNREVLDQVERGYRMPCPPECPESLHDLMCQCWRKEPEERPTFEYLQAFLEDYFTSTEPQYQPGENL
Structures can show the parent of a compound that is named as a salt.
experimental-endpoint: IC50

>>> print(df.to_string())
                                   molecule    measurement_target  measured_result
0  COCCN1CCN(Cc2ccc(-c3n[nH]c4c3C(=O)c3c(NC(=O)NN5CCOCC5)cccc3-4)cc2)CC1 [Compound B16, dihydrochloride]  c-Src (Homo sapiens)         < 100 nM

---

system: HCT-116 cells; assay: Calcein AM viability assay, HCT-116; assay type: cell-based; details: Homo sapiens, HCT-116, plus 1 mg/ml alpha acidic glycoprotein and 45 mg/ml human serum albumin; read-out: HCT-116 IC50 Protein adjusted
Listed here are molecules together with their documented IC50.
experimental-endpoint: IC50

In [3]: df
Out[3]:
                            compound_string  measured_result
0  CC(C)N1CCN(CCOc2ccc(-c3[nH]nc4c3C(=O)c3c(NC(=O)NN5CCOCC5)cccc3-4)cc2)CC1        < 1000 nM
1  CN1CCN(NC(=O)Nc2cccc3c2C(=O)c2c-3n[nH]c2-c2ccc(OCCN3CCC[C@H]3CO)cc2)CC1        < 1000 nM
2  CN1CCN(NC(=O)Nc2cccc3c2C(=O)c2c-3n[nH]c2-c2ccc(OCCN3CCCC3)cc2)CC1         < 100 nM

---

system: adriamycin resistant cell line (ADR-res); experiment: NCI panel, adriamycin resistant cell line, SRB assay; assay type: cell-based; settings: Homo sapiens, 48 h
pIC50: −log10 of the molar value. Counter-ions that a name gives are not always drawn.
experimental-endpoint: pIC50

                                   compound  experimental_endpoint  measured_result
0  CC(C)N1CCN(Cc2cc(-c3[nH]nc4c3C(=O)c3c(NC(=O)NN5CCOCC5)cccc3-4)ccc2O)CC1                  pIC50           > 5.00
1  CN1CCN(NC(=O)Nc2cccc3c2C(=O)c2c-3n[nH]c2-c2ccc(OCCN3CCCC3)cc2)CC1                  pIC50           > 6.00
2  Cc1cc(OCCN2CCCC2)ccc1-c1[nH]nc2c1C(=O)c1c(NC(=O)NN3CCN(C)CC3)cccc1-2                  pIC50           < 5.00
3  O=C(Nc1cccc2c1C(=O)c1c-2n[nH]c1-c1ccc(OCCN(CCO)CCO)cc1)NN1CCOCC1                  pIC50           < 5.00
4  CN1CCN(NC(=O)Nc2cccc3c2C(=O)c2c-3n[nH]c2-c2ccc(OCCN3CCOCC3)cc2)CC1                  pIC50           > 5.00
5  O=C(Nc1cccc2c1C(=O)c1c-2n[nH]c1-c1ccc(OCCN2CCCC2)cc1)NN1CCOCC1                  pIC50           > 6.00
6  CCCN(CCOc1ccc(-c2[nH]nc3c2C(=O)c2c(NC(=O)NN4CCOCC4)cccc2-3)cc1)CC1CC1                  pIC50           > 6.00
7  COCCN1CCN(Cc2ccc(-c3n[nH]c4c3C(=O)c3c(NC(=O)NN5CCOCC5)cccc3-4)cc2)CC1 [Compound B16, dihydrochloride]                  pIC50           > 5.00
8  CC(C)N1CCN(CCOc2ccc(-c3[nH]nc4c3C(=O)c3c(NC(=O)NN5CCOCC5)cccc3-4)cc2)CC1                  pIC50           > 6.00
9  CC(C)N1CCN(C(=O)COc2ccc(-c3n[nH]c4c3C(=O)c3c(NC(=O)NN5CCOCC5)cccc3-4)cc2)CC1                  pIC50           > 4.00

---

Listed here are molecules together with their documented IC50.
molecular target: JNK3 (Homo sapiens); construct: purchased Upstate 14-501; test: JNK3 kinase assay; type: biochemical; conditions: kinase panel, 10 μM ATP; read-out: JNK3 IC50
Sequence (P53779 39-464): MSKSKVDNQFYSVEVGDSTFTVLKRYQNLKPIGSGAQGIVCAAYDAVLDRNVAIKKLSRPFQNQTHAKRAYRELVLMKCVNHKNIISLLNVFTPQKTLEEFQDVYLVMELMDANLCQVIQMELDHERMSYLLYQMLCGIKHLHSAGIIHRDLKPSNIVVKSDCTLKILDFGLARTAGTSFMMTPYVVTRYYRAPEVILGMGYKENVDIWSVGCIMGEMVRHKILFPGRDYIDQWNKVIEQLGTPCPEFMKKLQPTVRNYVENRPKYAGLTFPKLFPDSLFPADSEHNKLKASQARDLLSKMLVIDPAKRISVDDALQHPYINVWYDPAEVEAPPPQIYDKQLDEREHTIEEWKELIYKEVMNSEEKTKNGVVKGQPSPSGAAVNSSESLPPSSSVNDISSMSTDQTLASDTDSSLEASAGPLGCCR
Counter-ions that a name gives are not always drawn.
experimental-endpoint: IC50

>>> df
                                   molecule  measured_result
0  COCCN1CCN(Cc2ccc(-c3n[nH]c4c3C(=O)c3c(NC(=O)NN5CCOCC5)cccc3-4)cc2)CC1 [Compound B16, dihydrochloride]         < 100 nM
1  CC(C)N1CCN(C(=O)COc2ccc(-c3n[nH]c4c3C(=O)c3c(NC(=O)NN5CCOCC5)cccc3-4)cc2)CC1     10 to 100 nM

---

biological target: Lck (Homo sapiens, UniProt P06239); construct: purchased Upstate 14-442; assay: Lck kinase assay; assay type: biochemical; details: read-out: LCK Inhibition (IC50)
Sequence (P06239 whole entry): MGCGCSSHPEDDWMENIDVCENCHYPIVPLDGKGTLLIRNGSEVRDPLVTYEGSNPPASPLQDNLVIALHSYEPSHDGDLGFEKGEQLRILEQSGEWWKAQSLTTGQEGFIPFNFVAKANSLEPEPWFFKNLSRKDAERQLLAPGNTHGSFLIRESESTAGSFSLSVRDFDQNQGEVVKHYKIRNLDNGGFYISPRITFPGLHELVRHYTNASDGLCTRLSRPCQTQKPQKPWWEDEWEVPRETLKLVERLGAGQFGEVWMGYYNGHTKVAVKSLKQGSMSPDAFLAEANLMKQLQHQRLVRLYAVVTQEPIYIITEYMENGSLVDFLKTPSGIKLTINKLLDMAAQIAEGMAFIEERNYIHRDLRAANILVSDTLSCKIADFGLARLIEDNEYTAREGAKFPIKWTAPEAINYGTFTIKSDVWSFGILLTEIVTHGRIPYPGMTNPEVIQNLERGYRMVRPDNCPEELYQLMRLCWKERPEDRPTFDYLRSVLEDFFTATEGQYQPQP
Where a name gives a salt, the structure may show the parent alone.
Listed here are compounds together with their documented IC50.
experimental-endpoint: IC50

>>> print(df.to_string())
                                   compound                  measurement_target  measured_result
0  CC(C)N1CCN(C(=O)COc2ccc(-c3n[nH]c4c3C(=O)c3c(NC(=O)NN5CCOCC5)cccc3-4)cc2)CC1  Lck (Homo sapiens, UniProt P06239)        < 0.05 µM
1  COCCN1CCN(Cc2ccc(-c3n[nH]c4c3C(=O)c3c(NC(=O)NN5CCOCC5)cccc3-4)cc2)CC1 [Compound B16, dihydrochloride]  Lck (Homo sapiens, UniProt P06239)        < 0.05 µM

---

target: CK1 delta (Homo sapiens); construct: purchased Upstate 14-520; test: CK1-Delta kinase assay (B16 assay); format: biochemical; conditions: CK1 delta; read-out: CSNK1A1 (CK1) Inhibition (IC50), B16
Sequence (P48730 whole entry): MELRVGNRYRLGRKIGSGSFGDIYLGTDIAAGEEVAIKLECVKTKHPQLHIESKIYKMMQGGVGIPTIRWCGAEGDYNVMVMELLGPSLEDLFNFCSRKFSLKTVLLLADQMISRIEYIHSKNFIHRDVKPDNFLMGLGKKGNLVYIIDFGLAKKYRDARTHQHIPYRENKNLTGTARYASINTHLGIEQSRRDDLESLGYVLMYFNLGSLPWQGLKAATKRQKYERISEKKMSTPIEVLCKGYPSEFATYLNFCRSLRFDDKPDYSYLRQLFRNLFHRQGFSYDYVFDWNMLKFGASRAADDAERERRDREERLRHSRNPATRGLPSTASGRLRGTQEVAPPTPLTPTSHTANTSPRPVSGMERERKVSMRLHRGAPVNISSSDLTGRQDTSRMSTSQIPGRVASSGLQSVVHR
pIC50: −log10 of the molar value. Where a name gives a salt, the structure may show the parent alone.
experimental-endpoint: pIC50

>>> df
                                   molecule  experimental_endpoint  measured_result
0  COCCN1CCN(Cc2ccc(-c3n[nH]c4c3C(=O)c3c(NC(=O)NN5CCOCC5)cccc3-4)cc2)CC1 [Compound B16, dihydrochloride]                  pIC50           > 7.30

---

system: normal human fibroblast, IMR90; assay: Calcein AM viability assay, IMR90; type: cell-based; conditions: IMR-90, text b600
Structures can show the parent of a compound that is named as a salt.
experimental-endpoint: IC50

In [3]: df
Out[3]:
                                   compound  measured_result
0  CC(C)N1CCN(C(=O)COc2ccc(-c3n[nH]c4c3C(=O)c3c(NC(=O)NN5CCOCC5)cccc3-4)cc2)CC1          < 50 nM
1  COCCN1CCN(Cc2ccc(-c3n[nH]c4c3C(=O)c3c(NC(=O)NN5CCOCC5)cccc3-4)cc2)CC1 [Compound B16, dihydrochloride]         < 100 nM
